- Tested on: IGROV1 ovarian
- measurement description: NCI tumour cell line growth inhibition, 48 h
Each entry below lists one item and its recorded GI50 value.

Examples with their reported GI50 follow.
COC(=O)c1ccc(=O)c2nc3/c(=C/O)c(O)cc(=O)c3[nH]c12: 469 nM
O=C1c2cccnc2-c2nc(/C=C/c3ccccc3)cc3c2c1nc1ccccc13: 1590 nM
NC1=NC(c2ccccc2)N=C(Nc2ccccc2)N1 (stereo not given): 39400 nM
COc1cc2cc(Oc3ccc(NC(=O)Nc4ccccc4)cc3)c(C)nc2cc1OCCN1CCCCC1: 5680 nM

Kindly consider the entry below.
I am curious: what GI50 value has been reported for `CCOC(=O)/C=C1\SC(=Nc2ccc(C#N)cc2)N(CCN2C(=O)/C(=C/C(=O)OCC)SC2=Nc2ccc(C#N)cc2)C1=O` ? 1990 nM

Reference source: PubChem BioAssay (NCI)
